GI50 values by entry
Test system: T47D
protocolDescription: NCI tumour cell line growth inhibition, 48 h
The source made the active and inactive calls. Cut-off read from the data, not from the text of the source: active = GI50 up to about 1.1 µM and inactive = higher.

| compound | measuredTarget | GI50 |
| --- | --- | --- |
| CCCCOc1c(C(=O)O)cc(Br)cc1C(=O)O | T47D | > 100 µM (inactive) |
| O=C(Nc1cccc(NC(=O)C(=O)C2CCC3=C(Sc4ccccc4N3)C2=O)n1)C(=O)C1CCC2=C(Sc3ccccc3N2)C1=O (centres undefined) | T47D | 50.4 µM (inactive) |
| C/C=C(\C)C(=O)OC1CC(OC(C)=O)C2(C(=O)OC)COC3C2C1(C)C1C2(C(=O)OC)OCC1(C3O)C1(O)C3CC(C4(O)C=COC4O3)C1(C)O2 (centres undefined) | T47D | > 100 µM (inactive) |
| COC(=O)c1ccc(CCC2=CC(=O)C=CC2=O)cc1 | T47D | 2.94 µM (inactive) |
| Cc1cc(C)c2c(=O)n(CN3CCC(O)(c4ccccc4)CC3)sc2n1 | T47D | 80.9 µM (inactive) |
| CN(C)c1ccc(/C=C(\NC(=O)c2ccccc2)c2nn(C)c(=O)o2)cc1 | T47D | > 100 µM (inactive) |
| COC(=O)[C@]1(c2cc3ccccc3[nH]2)CC2CN(C(=O)OCc3ccccc3)C1CC2=O (some centres undefined) | T47D | 22.5 µM (inactive) |
| Nc1cccc(/C=C/C(=O)N2CCN(CCOC(c3ccccc3)c3ccccc3)CC2)c1 | T47D | 13.1 µM (inactive) |
| Nn1c(CCCCCCCCc2nnc(COc3ccccc3)n2N)nnc1COc1ccccc1 | T47D | > 100 µM (inactive) |
| CC(=O)O[C@H]1C#C/C=C\C#CC[C@@H]2C(=O)N[C@@H]12 | T47D | 52.7 µM (inactive) |
| O=C1O/C(=C(/Br)c2ccc(Cl)c(Cl)c2)c2ccccc21 | T47D | > 10 µM (inactive) |
| CC(=O)Oc1ccc2c(c1)Oc1cc(C(C)=O)ccc1C21OC(=O)c2ccccc21 (centres undefined) | T47D | > 100 µM (inactive) |
| CN(C)CCNc1nc2ccccc2c2c1CCCC2 | T47D | 16.7 µM (inactive) |
| C[C@]12CC[C@H]3[C@@H](CC=C4C[C@@H](O)CC[C@@]43C)[C@@H]1C/C(=C\c1ccncc1)[C@@H]2O | T47D | 12.1 µM (inactive) |
| Cc1c(C)c2c(c(N)c1C#N)C(=O)N(NC(=O)c1ccccc1)C2=O | T47D | 24.8 µM (inactive) |
| O=C(/C=C/c1ccc(O)c(O)c1)c1ccc(O)cc1O | T47D | 14.4 µM (inactive) |
| CCCCCC(O)C1C(=O)OC(C)C(O)/C=C/C=C/C=C/C=C/C=C(\C)C(O)C(O)C(O)CC(O)CC(O)CC(O)CC(O)CC1O (centres undefined) | T47D | > 100 µM (inactive) |
| Cn1c(=O)c2c(nc(NCCNc3nc4c(c(=O)n(C)c(=O)n4C)n3C)n2C)n(C)c1=O | T47D | > 100 µM (inactive) |
| O=C1NC(=O)[C@H]2C3C=CC([C@@H]12)[C@@H]1C(=O)NC(=O)[C@H]31 | T47D | > 100 µM (inactive) |

====

Tested on: SN12C
protocolDescription: NCI tumour cell line growth inhibition, 48 h
The source made the active and inactive calls. No stated cut-off is given here; in the data, active = GI50 up to about 1.1 µM and inactive = higher.
Each entry below lists one item and its recorded GI50 value.

| compound | GI50 |
| --- | --- |
| Cc1c(/C=N/NC(=O)c2ccc(Cl)cc2)c(=O)n(-c2ccccc2)n1C | > 100 µM (inactive) |
| Cc1ccccc1NC(=O)C1C(=O)N(c2ccccc2C)C(=O)/C1=N\N (stereo not given) | > 100 µM (inactive) |
| COC(=O)c1ccc(NC(=O)c2cc3c(cc2Br)OCO3)o1 | > 100 µM (inactive) |
| CC(=O)O[C@H]1C#C/C=C\C#CC[C@@H]2C(=O)N[C@@H]12 | 26 µM (inactive) |
| COc1cc(C2c3cc4c(cc3[C@@H](Nc3ccc(N)cc3)C3COC(=O)[C@H]23)OCO4)cc(OC)c1O (stereo not given in full) | 0.711 µM (active) |

====

System: SNB-75
protocolDescription: NCI tumour cell line growth inhibition, 48 h
The source made the active and inactive calls. Cut-off read from the data, not from the text of the source: active = GI50 up to about 1.1 µM and inactive = higher.
Collected GI50 values appear next to each entry.
assayEndpoint: GI50

| compound | valueObserved |
| --- | --- |
| COc1cc2cccc(N)c2cc1OC | > 100 µM (inactive) |
| CCNc1nnc(-c2ccccc2Nc2ccccc2-c2nnc(NCC)s2)s1 | 18.2 µM (inactive) |
| Cc1cc(C(=C2C=CC(=[N+](C)C)C=C2)c2ccc([N+](C)(C)C)cc2)ccc1N(C)C | 2.65 µM (inactive) |
| CCN(CC)c1ccc2cc(-c3csc(C)n3)c(=O)oc2c1 | 0.0585 µM (active) |
| Nc1nncs1 | 1440 µM (inactive) |
| O=S(=O)(O)c1cccc2cccc(/N=N/c3c(O)ccc4ccccc34)c12 | > 100 µM (inactive) |
| CC(=O)CC(=O)CCCC(=O)Nc1ccc(Cl)cc1Cl | > 100 µM (inactive) |
| CC(=O)OCc1cncn1S(=O)(=O)c1ccc(C)cc1 | > 100 µM (inactive) |
| CC(C)Sc1nncc(/C(N)=N/O)n1 | > 100 µM (inactive) |
| CC(=O)Nc1ccc2c(c1)C(=O)c1ccccc1-2 | > 100 µM (inactive) |
| ON=C1CCC(c2ccccc2)CC1 (centres undefined) | > 100 µM (inactive) |
| CC(=O)OC1CC[C@@]2(C)C(CC[C@]3(C)C2CC=C2[C@@H]4CC(C)(C)CCC4(C)CCC23C)[C@@]1(C)C(=O)O (some centres undefined) | 23 µM (inactive) |
| CC(=O)Nc1ccc(NC(=O)c2c(Cl)c(Cl)c(Cl)c(Cl)c2-c2nc3ccccc3[nH]2)cc1 | 73.3 µM (inactive) |
| O=C(CCn1[nH]c(=O)c(Cl)c(Cl)c1=O)NOCCCc1ccccc1 | > 100 µM (inactive) |
| N=C1OC(c2cccc(Cl)c2)C(NNS(=O)(=O)c2ccccc2)=C1O (centres undefined) | 26.9 µM (inactive) |
| CCc1ccc(CCC(=O)O)nc1 | > 100 µM (inactive) |
| O=c1c2cc(O)c(O)cc2oc2cc(O)c(C3OC(CO)C(O)C(O)C3O)c(O)c12 (centres undefined) | > 100 µM (inactive) |
| O=C1CCC(=O)C1=NNc1ccccc1 | > 100 µM (inactive) |
| COc1ccc2cc1Oc1ccc(cc1)CC1c3cc(c(OC)cc3CCN1C)Oc1c3c(cc4c1C(C2)N(C)CC4)OCO3 (centres undefined) | 3.74 µM (inactive) |
| Cc1cc(NC(=S)Nc2ccccc2)c(NC(=S)Nc2ccccc2)cc1C | 27 µM (inactive) |
| Cc1nc(Cl)c(C)c(Cl)n1 | > 100 µM (inactive) |
| CN(C(=O)CCC(=O)O)c1ccccc1C(=O)O | > 100 µM (inactive) |
| C/C(Nc1ccc(Cl)cc1)=C1/CCOC1=O | > 67.8 µM (inactive) |
| CCOC(=O)Cc1cc(OC)c(OC)cc1/C(Cl)=C(\C=O)c1ccc(OC)c(OC)c1 | 32.1 µM (inactive) |

====

Test system: UACC-257
protocolDescription: NCI tumour cell line growth inhibition, 48 h
Activity calls are given as the source filed them. Cut-off read from the data, not from the text of the source: active = GI50 up to about 1.1 µM and inactive = higher. Peptide text beside a SMILES is read from it. * marks the point of attachment. Boc = CC(C)(C)OC(=O)*; OtBu = CC(C)(C)O*
GI50 values, listed per item

| compound | GI50 |
| --- | --- |
| O=C1[C@@H](c2ccc(Cl)cc2)[C@H]2CC=C[C@H]2N1O | > 100 µM (inactive) |
| CCOC1(COP(=O)(OCc2ccccc2)OCc2ccccc2)COC(COP(=O)(OCc2ccccc2)OCc2ccccc2)(OCC)CO1 (stereo not drawn) | > 100 µM (inactive) |
| Cc1cnc2nc(-c3cccc4ccccc34)cc(O)c2c1 | 0.000254 µM (active) |
| Cc1cc(Cl)ccc1NC(=O)CC1SC(N)=NC1=O (stereo not drawn) | > 100 µM (inactive) |
| COC1OC(COC(=O)NCCCCC(=O)C(F)(F)F)C(O)C(O)C1O (stereo not drawn) | > 100 µM (inactive) |
| Nn1c(CCCCCCCCc2nnc(COc3ccccc3)n2N)nnc1COc1ccccc1 | > 100 µM (inactive) |
| O=C1O/C(=C\c2ccc(O)c(Br)c2)C(c2ccc(O)c(Cl)c2)=C1Br | 15.8 µM (inactive) |
| CCOc1ncn(-c2ccc(NC(=S)Nc3ncccn3)cc2)n1 | 28.9 µM (inactive) |
| C/C(=C/CC[C@](C)(OC1OC(CO)C(O)C(O)C1O)[C@H]1CC[C@]2(C)[C@@H]1CC[C@@H]1[C@@]3(C)CC[C@H](O)C(C)(C)[C@@H]3C[C@H](O)[C@]12CO)CO (stereo partly drawn) | > 100 µM (inactive) |
| CC(C)(C)OC(=O)CC(NC(=O)OC(C)(C)C)C(=O)NC(Cc1ccccc1)C(N)=O (stereo not drawn) (Boc-Asp(OtBu)-Phe-NH2; configuration not given here) | > 100 µM (inactive) |
| c1ccc(C2(c3cc4ccccc4[nH]3)OCCO2)nc1 | > 100 µM (inactive) |
| CSc1nc2c(c(O)c(C)c(=O)n2C2OC(COC(C)=O)C(OC(C)=O)C(OC(C)=O)C2OC(C)=O)c(=O)n1C (stereo not drawn) | > 100 µM (inactive) |
| C=C1C(=O)O[C@H]2[C@H]([C@H](C)CCCC(C)=O)O[C@H]([C@@]3(C)CCC(=O)O3)C[C@@H]12 | 77.1 µM (inactive) |
| Cc1ccc2c(c1C)-c1c(ccc(C)c1C)C(=O)C2=O | 1.37 µM (inactive) |
| CC(=O)C1CC=C(C)CC1 (stereo not drawn) | > 100 µM (inactive) |
| CCN(CC)c1ccc2cc(-c3csc(C)n3)c(=O)oc2c1 | 77.8 µM (inactive) |
| c1ccc2c(c1)nc1n2CCNC1 | > 100 µM (inactive) |
| O=[N+]([O-])c1ccc(-c2csc3nc(-c4ccccc4)nn23)cc1 | > 100 µM (inactive) |
| C[n+]1c(-c2ccc(/C=N\Nc3ccnc(N/N=C/c4ccc(-c5cn6ccsc6[n+]5C)cc4)n3)cc2)cn2ccsc21 | 17.7 µM (inactive) |
| CCCCNCCCNCCCNC(=O)c1csc(-c2csc(CCNC(=O)C(NC(=O)C(C)C(O)C(C)NC(=O)C(NC(=O)c3nc(C(CC(N)=O)NCC(N)C(N)=O)nc(N)c3C)C(OC3OC(CO)C(O)C(O)C3OC3OC(CO)C(O)C(OC(N)=O)C3O)c3c[nH]cn3)C(C)O)n2)n1 (stereo not drawn) | 14.3 µM (inactive) |
| O=c1[nH]cnc(NC2C=C(CO)C(O)C2O)c1[N+](=O)[O-] (stereo not drawn) | > 100 µM (inactive) |
| CSC1NNC2(C(=O)N1)c1ccccc1-c1ccccc12 (stereo not drawn) | > 10 µM (inactive) |
| O=C(/C=C/c1ccccc1O)c1cccc2ccccc12 | > 69.5 µM (inactive) |
| CN(C)CCOC1(CC2CCCCC2)CCC(C(C)(C)C)CC1 (stereo not drawn) | 4.61 µM (inactive) |
| O=C(O)C1CCCCC1C(=O)Nc1nc2ccccc2[nH]1 (stereo not drawn) | > 100 µM (inactive) |
| O=C(CCN1CCOCC1)/C(=C/c1ccccc1)c1ccccc1 | 2.74 µM (inactive) |
| CCOc1ccccc1N1C(=O)C(=O)C(c2nc3ccccc3o2)/C(=N\N)C1=O (stereo not drawn) | 49.9 µM (inactive) |
| CN1CCC(=O)/C(=C/c2ccccc2)C1 | 14.7 µM (inactive) |
